experiment: soluble fraction after stress (log2 fold change); higher = more stays soluble; pooled small domains, quantitative proteomics; details: stress: 75 degC;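 note: 20 min heating vs room temperature control held 20 min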
measurement.type: soluble fraction (log2)

Illustrative cases are given below, each with its answer.
[[record]]
sequence_string = "HMRKPLDQSWVPDDDAMKILTNSGIEKEFIKNEIPEFILYWSDKGEISDSWNTKFISQIRRQWAKNQ"
measurement_type = "soluble fraction (log2)"
observed = -0.0241

[[record]]
sequence_string = "HMKDKSEKTKKLIFEAAFKIIREEGFSELSANKIAQVASVSKGVIFHHFSQMDDLYLFMLDTL"
measurement_type = "soluble fraction (log2)"
observed = 0.23

[[record]]
sequence_string = "HMTDIDATSIERAVAKRRHFFLSNIQDLTMKMARRLIEKDLGLAPKHLDAAPFKTRITELVDAVIALGD"
measurement_type = "soluble fraction (log2)"
observed = -0.393

[[record]]
sequence_string = "HMDDVGYLRKRLQQALAQLSDDLRNTYTLFQIGKQSIKQIAAETGASESLVKVRIHRAKQKLQELLADLQ"
measurement_type = "soluble fraction (log2)"
observed = -1.47

[[record]]
sequence_string = "HMIDNFFTIRFNYSKINEVIRLLKEFNGEIFNKNYDKNEYIIEFSIPKKDAALLISKLKNITGLTIEQ"
measurement_type = "soluble fraction (log2)"
observed = -1


response.value for `HMKRSFGYIRLLPSKRYQASYIGPDSQRHAAPETFTRKMDAEGWLSAERRLIEWDQWTSPEQRAAQARLD` (field: soluble fraction (log2)) = -0.663

response.value for `HMGNASQAARRQRIVDAALELLQDRPYDQIQMRDVAEGAGVALGTLYRYFPSKEQLFAHVLVE` (field: soluble fraction (log2)) = -0.286

response.value for `HMTAKQDLDSIYRHLVATRKSIAENPKMVSSIDDPQALIKMLDYAIQYFYTDKRDEALAVLEKNEEQLNFR` (field: soluble fraction (log2)) = -0.347

Source of measurements: the domain aggregation screens of Martell et al. (2025)
